Reference source: patent US20250243219A1

assay: Pharmacokinetics in mice, oral dose; assay type: in vivo, mice (strain FVB/N); settings: FVB/N, mouse, plasma; oral 10 mg/kg; read-out: T1/2 Plasma (converted)
OBSERVED PROPERTY: half-life (h)
Kindly provide the numeric value in h only, without the unit symbol.

(Q) Need half-life of CC(C)[C@@H]1OC(=O)C(C)(C)/C=C/c2ccc3ccc(nc3c2)N(C)NC(=O)[C@@H]2CCCN(N2)C(=O)[C@H](C)NC1=O [Compound (2)] , thanks.
(A) 3

----------
biological target: cyclophilin D (Homo sapiens (Human), UniProt P30405); assay: Functional peptidyl prolyl isomerase (PPIase) spectrophotometric assay, cyclophilin D; conditions: second value of CypA/D cell; read-out: Ki CypD
Sequence (P30405 30-207, species assumed): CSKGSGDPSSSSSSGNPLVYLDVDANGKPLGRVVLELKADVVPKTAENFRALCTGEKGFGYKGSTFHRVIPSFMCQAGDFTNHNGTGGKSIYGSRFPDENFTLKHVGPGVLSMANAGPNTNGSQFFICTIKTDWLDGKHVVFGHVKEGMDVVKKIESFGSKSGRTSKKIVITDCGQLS
# pKi listing for each entry below
Bear in mind: pKi is minus log10 of a mol/L concentration; give just that figure.

Here are 3 molecules together with their reported answers.
(Q) I'm curious: which pKi was measured for C[C@@H]1NC(=O)[C@H](Cc2ccc(C(=O)O)cc2)OC(=O)C(C)(C)/C=C/c2ccc3ccc(nc3c2)N(C)N(C)C(=O)[C@@H]2CCCN(N2)C1=O [Compound (11)] tested on cyclophilin D (Homo sapiens (Human), UniProt P30405)?
(A) 7.08

(Q) I'm curious: which pKi was measured for C[C@@H]1NC(=O)[C@H](C2CCOCC2)OC(=O)C(C)(C)/C=C/c2ccc3ccc(nc3c2)N(C)NC(=O)[C@@H]2CCCN(N2)C1=O [Compound (59)] tested on cyclophilin D (Homo sapiens (Human), UniProt P30405)?
(A) 7.42

(Q) I'm curious: which pKi was measured for CC(C)[C@@H]1OC(=O)C2(/C=C/c3ccc4ccc(nc4c3)N(C)NC(=O)[C@@H]3CCCN(N3)C(=O)[C@H](C)NC1=O)CCCC2 [Compound (21)] tested on cyclophilin D (Homo sapiens (Human), UniProt P30405)?
(A) 8.21

Further cases:
(Q) I'm curious: which pKi was measured for C[C@@H]1NC(=O)[C@@H](CC2CCCNC2)OC(=O)C(C)(C)/C=C/c2ccc3ccc(nc3c2)N(C)N(C)C(=O)[C@@H]2CCCN(N2)C1=O (single isomer, unassigned) [Compound (33)] tested on cyclophilin D (Homo sapiens (Human), UniProt P30405)?
(A) 5.42

----------
Assay: Pharmacokinetics in mice, oral dose
Format: in vivo, mice (strain FVB/N)
Settings: FVB/N, mouse, plasma; oral 10 mg/kg; read-out: Tmax Plasma
Protocol: Test compounds were administered to rodents (mice or rats) either orally, subcutaneously or intravenously. To determine blood or plasma concentrations blood samples were taken at different time points and analysed for the concentration of test compound by LC/MS. Brain concentrations were measured by sacrificing animals and LC/MS analysis of brain homogenate. […]
OBSERVED PROPERTY: Tmax (min)
Kindly provide the numeric value in min only, without the unit symbol.

(Q) Need Tmax of CC(C)[C@@H]1OC(=O)C(C)(C)/C=C/c2ccc3ccc(nc3c2)N(C)NC(=O)[C@@H]2CCCN(N2)C(=O)[C@H](C)NC1=O , thanks.
(A) 30

----------
molecular target: cyclophilin A (Homo sapiens (Human)); assay: Functional peptidyl prolyl isomerase (PPIase) spectrophotometric assay, cyclophilin A; settings: first value of CypA/D cell
OBSERVED PROPERTY: pKi
Bear in mind: pKi is minus log10 of a mol/L concentration; give just that figure.

(Q) Need pKi of CC(C)[C@@H]1OC(=O)C(C)(C)/C=C/c2ccc3ccc(nc3c2)N(C)NC(=O)[C@@H]2CCCN(N2)C(=O)[C@H](CCC(=O)N2CCN(C)CC2)NC1=O , thanks.
(A) 8.17

(Q) Need pKi of CC(C)[C@@H]1OC(=O)C(C)(C)/C=C/c2ccc3ccc(nc3c2)N(C)NC(=O)[C@@H]2CCCN(N2)C(=O)[C@H](CCC(=O)O)NC1=O , thanks.
(A) 8.25

(Q) Need pKi of CC(C)C(=O)N1CCC2(/C=C/c3ccc4ccc(nc4c3)N(C)NC(=O)[C@@H]3CCCN(N3)C(=O)[C@H](C)NC(=O)[C@H](C(C)C)OC2=O)CC1 , thanks.
(A) 8.77

(Q) Need pKi of C[C@@H]1NC(=O)[C@H](C[C@H]2CCCN(C)C2)OC(=O)C(C)(C)/C=C/c2ccc3ccc(nc3c2)N(C)NC(=O)[C@@H]2CCCN(N2)C1=O , thanks.
(A) 6.82

(Q) Need pKi of C[C@@H]1NC(=O)[C@H](CCCN)OC(=O)C(C)(C)/C=C/c2ccc3ccc(nc3c2)N(C)NC(=O)[C@@H]2CCCN(N2)C1=O , thanks.
(A) 6.96

As a next step, examine the molecule that follows.
(Q) Need pKi of COC[C@]1(C)/C=C/c2ccc3ccc(nc3c2)N(C)NC(=O)[C@@H]2CCCN(N2)C(=O)[C@H](C)NC(=O)[C@H](C(C)C)OC1=O , thanks.
(A) 7.77

----------
system: SH-SY5Y cells; test: Thapsigargin treated cell death assay in SH-SY5Y cells; type: cell-based, human; details: compound at 10 μM; positive = protection from cell death, negative = compound toxicity
OBSERVED PROPERTY: SYSY [10 μM] % recovery (%)
Kindly provide the numeric value in % only, without the unit symbol.

Here are 2 molecules together with their reported answers.
(Q) Need SYSY [10 μM] % recovery of CC(C)[C@@H]1NC(=O)C(C)(C)/C=C/c2ccc3ccc(nc3c2)N(C)NC(=O)[C@@H]2CCCN(N2)C(=O)[C@H](C)NC1=O , thanks.
(A) 4

(Q) Need SYSY [10 μM] % recovery of CNC(=O)c1ccc(C[C@@H]2OC(=O)C(C)(C)/C=C/c3ccc4ccc(nc4c3)N(C)N(C)C(=O)[C@@H]3CCCN(N3)C(=O)[C@H](C)NC2=O)cc1 , thanks.
(A) 25

Further cases:
(Q) Need SYSY [10 μM] % recovery of CC(C)[C@@H]1OC(=O)C(C)(C)/C=C/c2ccc3ccc(nc3c2)N(C)NC(=O)[C@@H]2CCCN(N2)C(=O)[C@H](CCC(=O)NC2CCN(C)CC2)NC1=O , thanks.
(A) 4

----------
molecular target: cyclophilin A (Homo sapiens (Human), UniProt P62937); experiment: Functional peptidyl prolyl isomerase (PPIase) spectrophotometric assay, cyclophilin A; conditions: first value of CypA/D cell
Sequence (P62937 whole entry, species assumed): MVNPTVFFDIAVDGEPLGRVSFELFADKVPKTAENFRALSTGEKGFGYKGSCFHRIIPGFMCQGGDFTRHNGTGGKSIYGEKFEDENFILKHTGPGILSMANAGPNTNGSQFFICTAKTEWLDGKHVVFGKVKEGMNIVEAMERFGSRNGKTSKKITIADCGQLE
Ki strictly less than 10 nM = label 1. Otherwise label 0.

(Q) Determine whether this compound shows Ki lower than 10 nM (ties excluded): CC(C)[C@@H]1OC(=O)C(C)(C)/C=C/c2ccc3ccc(nc3c2)N(C)NC(=O)[C@@H]2CCCN(N2)C(=O)[C@H](CCC(=O)NCc2cccnc2)NC1=O
(A) label 0

(Q) Determine whether this compound shows Ki lower than 10 nM (ties excluded): COc1ccc(C[C@@H]2OC(=O)C(C)(C)/C=C/c3ccc4ccc(nc4c3)N(C)NC(=O)[C@@H]3CCCN(N3)C(=O)[C@H](C)NC2=O)cc1
(A) label 1

Further cases:
(Q) Determine whether this compound shows Ki lower than 10 nM (ties excluded): C[C@@H]1NC(=O)[C@H](Cc2ccc(O)cc2)OC(=O)C(C)(C)/C=C/c2ccc3ccc(nc3c2)N(C)NC(=O)[C@@H]2CCCN(N2)C1=O
(A) label 1

(Q) Determine whether this compound shows Ki lower than 10 nM (ties excluded): C[C@@H]1NC(=O)[C@H](CN2CCCCC2)OC(=O)C(C)(C)/C=C/c2ccc3ccc(nc3c2)N(C)NC(=O)[C@@H]2CCCN(N2)C1=O
(A) label 0

(Q) Determine whether this compound shows Ki lower than 10 nM (ties excluded): CC(C)[C@@H]1OC(=O)C(C)(C)/C=C/c2ccc3ccc(nc3c2)N(C)NC(=O)[C@@H]2CCCN(N2)C(=O)[C@H](C2CC2)NC1=O
(A) label 1

(Q) Determine whether this compound shows Ki lower than 10 nM (ties excluded): C[C@@H]1NC(=O)[C@H](Cc2cccc(N)c2)OC(=O)C(C)(C)/C=C/c2ccc3ccc(nc3c2)N(C)NC(=O)[C@@H]2CCCN(N2)C1=O
(A) label 1

(Q) Determine whether this compound shows Ki lower than 10 nM (ties excluded): C[C@@H]1NC(=O)[C@@H](CC2CCCN(C)C2)OC(=O)C(C)(C)/C=C/c2ccc3ccc(nc3c2)N(C)NC(=O)[C@@H]2CCCN(N2)C1=O (stereo partly shown)
(A) label 0

----------
test system: SH-SY5Y cells; assay: Thapsigargin treated cell death assay in SH-SY5Y cells; assay type: cell-based, human; conditions: compound at 10 μM; positive = protection from cell death, negative = compound toxicity
OBSERVED PROPERTY: SYSY [10 μM] % recovery

(Q) Need SYSY [10 μM] % recovery of C[C@@H]1NC(=O)[C@H](CC2CCCNC2)OC(=O)C(C)(C)/C=C/c2ccc3ccc(nc3c2)N(C)NC(=O)[C@@H]2CCCN(N2)C1=O (some centres unmarked) , thanks.
(A) 15%

(Q) Need SYSY [10 μM] % recovery of CC(C)[C@@H]1OC(=O)C(C)(C)/C=C/c2ccc3ccc(nc3c2)N(C)NC(=O)[C@@H]2CCCN(N2)C(=O)[C@H](CCC(=O)N2CCC(O)CC2)NC1=O , thanks.
(A) 43%

(Q) Need SYSY [10 μM] % recovery of C[C@@H]1NC(=O)[C@H](Cc2ccc(NS(C)(=O)=O)cc2)OC(=O)C(C)(C)/C=C/c2ccc3ccc(nc3c2)N(C)NC(=O)[C@@H]2CCCN(N2)C1=O , thanks.
(A) 29%

(Q) Need SYSY [10 μM] % recovery of CC(C)[C@@H]1OC(=O)C(C)(C)/C=C/c2ccc3ccc(nc3c2)N(C)NC(=O)[C@@H]2CCCN(N2)C(=O)[C@H](CCC(=O)NCC2CCOCC2)NC1=O , thanks.
(A) 52%

Further cases:
(Q) Need SYSY [10 μM] % recovery of COC[C@@]1(C)/C=C/c2ccc3ccc(nc3c2)N(C)NC(=O)[C@@H]2CCCN(N2)C(=O)[C@H](C)NC(=O)[C@H](C(C)C)OC1=O , thanks.
(A) 8.4%
